Documented self-cleavage kobs at 2500 uM GlcN6P across a set of variants
B1: glmS ribozyme (parent)
chain: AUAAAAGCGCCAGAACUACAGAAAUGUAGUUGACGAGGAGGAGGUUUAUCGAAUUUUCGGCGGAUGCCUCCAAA

# Variants of: B1
# MEASUREMENT_PROTOCOL: self-cleavage kobs at 2500 uM GlcN6P; higher = faster cleavage; RNA array
# RUN_PARAMETERS: with glucosamine-6-phosphate
Fewer inactive variants are shown than the library holds.
RECORDED_METRIC: self-cleavage kobs at 2500 uM GlcN6P

1) AUAAAAGAGCCAGAACUACAGAAAUGUAGUCGACGAGGAGGAGGUUUUUCAAAUUUUCCGCGGAUGCCUCCAAA [C8A U31C A48U G51A G59C]	< 1e-05 s⁻¹
2) AUAAAGGCGCCAGGACUACAGAAAUGUAGUUGACGAGGAGGAGGUUUAUCGAAUUUUCGGCGGAUGCCUCCAAA [A6G A14G]	0.000514 s⁻¹
3) AUAAAAGCGCCUGAACUACAGAAAUGUAGUCGACGAGGAGGAGGUUUAUCGAAUUUGCGGCGGAUGCCUCCAAA [A12U U31C U57G]	5.17e-05 s⁻¹
4) AUAAAGGCGCCAGAACUACAGAAAUGUAGUUGACGAGGAGGAGGUUUAUGGAAUUUUCGGCGGAUGCCUCCAAA [A6G C50G]	0.000106 s⁻¹
5) AUAAAAGCGCCAGAACUACAGAAAUGUAGUUGACGAGGAGGAAGUUAAUCGACUUUUCCGCGGAUGCCUCCAAA [G43A U47A A53C G59C]	< 1e-05 s⁻¹
6) AUAAAAGCGCCAGAACUACAGAAAUGUAGUUGAAUAAGAGGAGGUUUAACGAAUUCUCGGCGGAUGCCUCCAAA [C34A G35U G37A U49A U56C]	< 1e-05 s⁻¹
7) AUAAAAGCGCCAGAACUACAGAAAUGUAGUUGACGAGGAGGAAGUUUAUCGAGUUUUCGUCGGAUGCCUCCAAA [G43A A53G G60U]	< 1e-05 s⁻¹
8) AUAAAAGCGCCAGAACUACAGAAAUGUAAUUGACUAGGAGAAGGUUUAUCGAAUUUUCGGCGGAUGCCUCCAAA [G29A G35U G41A]	< 1e-05 s⁻¹
9) AUAAAGGCGUCAGAACUACAGAAAUGUAGUUGACGAGGUGGAGGUUUAUCGAAUUUUCGGCGGAUGCCUCCAAA [A6G C10U A39U]	< 1e-05 s⁻¹
10) AUAAAAGCGCCAGAACUACAGAAAUGUAGUAGACGAGGAGGAGGUUUAUCGAAUUUACGGCGGAUGCCUCCAAA [U31A U57A]	0.000125 s⁻¹
11) AUAAAAGCGCGAGUACUACAGAAAUGUAGUUGACGUGGAGGAGGUAUAUCGAAUUUUCGGGGAAUGCCUCCAAA [C11G A14U A36U U46A C61G G63A]	< 1e-05 s⁻¹
